target: DGKα (Homo sapiens (Human), UniProt P23743); test: Human DGKα kinase activity inhibition assay (ADP-Glo); conditions: recombinant full-length human DGKα, 55 μM ATP, 7 μM 1,2-dioleoyl-sn-glycerol, read-out: IC50 values of examples in in vitro human DGKa kinase activity inhibition assays
Sequence (P23743 other isoform, or with tags, fused parts or gaps): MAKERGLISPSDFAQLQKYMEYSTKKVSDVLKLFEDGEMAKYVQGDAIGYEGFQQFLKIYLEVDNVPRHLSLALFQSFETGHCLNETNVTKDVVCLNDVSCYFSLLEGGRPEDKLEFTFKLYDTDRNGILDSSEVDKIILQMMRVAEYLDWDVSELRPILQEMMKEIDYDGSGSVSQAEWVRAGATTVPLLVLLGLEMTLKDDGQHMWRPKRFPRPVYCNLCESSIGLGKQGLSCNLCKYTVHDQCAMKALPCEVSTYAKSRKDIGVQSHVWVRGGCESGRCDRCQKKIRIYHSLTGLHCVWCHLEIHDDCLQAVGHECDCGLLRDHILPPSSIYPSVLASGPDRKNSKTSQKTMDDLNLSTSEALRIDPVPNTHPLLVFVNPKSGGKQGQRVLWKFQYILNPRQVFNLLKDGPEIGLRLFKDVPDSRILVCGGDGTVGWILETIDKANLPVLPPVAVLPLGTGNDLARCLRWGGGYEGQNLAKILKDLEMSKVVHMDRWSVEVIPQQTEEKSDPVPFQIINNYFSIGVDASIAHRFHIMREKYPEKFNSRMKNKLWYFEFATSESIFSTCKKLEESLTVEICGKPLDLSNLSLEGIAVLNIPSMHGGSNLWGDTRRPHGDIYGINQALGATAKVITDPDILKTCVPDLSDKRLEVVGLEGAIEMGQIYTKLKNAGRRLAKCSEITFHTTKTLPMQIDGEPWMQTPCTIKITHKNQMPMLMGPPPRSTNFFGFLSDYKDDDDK
pIC50: −log10 of the molar value.
Classification field: fulfilled = pIC50 at or over 8; not fulfilled = pIC50 under 8.

>  <molecule>
Cn1c(=O)c(C#N)c(N2CCC(c3ccc(OCC(F)(F)F)cc3)CC2)c2ccccc21

>  <category>
fulfilled

$$$$
>  <molecule>
C=C(c1ccc2c(c1)c(N1CCC(c3nc4cc(C)ccc4o3)CC1)c(C#N)c(=O)n2C)C(F)(F)F

>  <category>
fulfilled

$$$$
>  <molecule>
Cn1c(=O)c(C(N)=O)c(N2CCC(C)(c3nnc(-c4cccc(Cl)c4)o3)CC2)c2ccccc21

>  <category>
not fulfilled

$$$$
>  <molecule>
COc1ccc2c(c1)c(N1CCC(c3nnc(-c4ccccc4)o3)CC1)c(C#N)c(=O)n2C

>  <category>
not fulfilled

$$$$
>  <molecule>
Cn1c(=O)c(C#N)c(N2CCC(c3cnccn3)CC2)c2ccccc21

>  <category>
not fulfilled

$$$$
>  <molecule>
Cc1ccc2oc(C3CCN(c4c(C#N)c(=O)n(C)c5c(Cl)cccc45)CC3)nc2c1

>  <category>
not fulfilled

$$$$
>  <molecule>
Cn1c(=O)c(C#N)c(N2CCC(c3nc4ccc(Cl)cc4o3)CC2)c2ccccc21

>  <category>
fulfilled

$$$$
>  <molecule>
Cn1c(=O)c(C#N)c(N2CCC(c3nc4cc(F)ccc4s3)CC2)c2ccccc21

>  <category>
fulfilled

$$$$
>  <molecule>
CNC(=O)c1c(N2CCC(c3nc4ccccc4o3)CC2)c2ccccc2n(C)c1=O

>  <category>
not fulfilled

$$$$
>  <molecule>
Cn1c(=O)c(C#N)c(N2CCC(c3cccc(Br)c3)CC2)c2ccccc21

>  <category>
not fulfilled

$$$$
>  <molecule>
Cn1c(=O)c(C#N)c(N2CCC(c3nc4ccccc4s3)CC2)c2ccccc21

>  <category>
fulfilled

$$$$
>  <molecule>
Cn1c(=O)c(C(N)=O)c(N2CCC(C)(c3nc4ccccc4o3)CC2)c2ccc(Cl)cc21

>  <category>
fulfilled

$$$$
>  <molecule>
Cn1c(=O)c(C#N)c(N2CCC(C)(c3nc4ccccc4o3)CC2)c2cccc(Cl)c21

>  <category>
not fulfilled

$$$$
>  <molecule>
COc1ccc2oc(C3CCN(c4c(C(N)=O)c(=O)n(C)c5ccccc45)CC3)nc2c1

>  <category>
fulfilled

$$$$
>  <molecule>
Cc1ccc2oc(C3CCN(c4c(C#N)c(=O)n(C)c5cc(OC6CCOC6)c(Br)cc45)CC3)nc2c1 (racemic)

>  <category>
fulfilled

$$$$
>  <molecule>
Cn1c(=O)c(C(N)=O)c(N2CCC(c3nc4ccccc4o3)CC2)c2cccc(Cl)c21

>  <category>
not fulfilled

$$$$
>  <molecule>
Cc1ccccc1-c1nnc(C2CCN(c3c(C#N)c(=O)n(C)c4cc(O)c(Br)cc34)CC2)o1

>  <category>
not fulfilled

$$$$
>  <molecule>
Cc1ccc2oc(C3CCN(c4c(C#N)c(=O)n(C)c5ccc(P(C)(C)=O)cc45)CC3)nc2c1

>  <category>
not fulfilled

$$$$
>  <molecule>
Cn1c(=O)c(C(N)=O)c(N2CCC(c3nc4ccccc4s3)CC2)c2ccc(N3CCCC3=O)cc21

>  <category>
not fulfilled

$$$$
>  <molecule>
Cn1c(=O)c(C(N)=O)c(N2CCC(c3nc4cc(N5CCCC5=O)ccc4o3)CC2)c2ccccc21

>  <category>
not fulfilled

$$$$
>  <molecule>
Cc1ccc2oc([C@H]3CCN(c4c(C#N)c(=O)n(C)c5ccccc45)[C@@H](C)C3)nc2c1 [Example 234]

>  <category>
fulfilled

$$$$
>  <molecule>
Cn1c(=O)c(C#N)c(N2CCC(C)(c3nc4ccccc4o3)CC2)c2ccc(C(F)(F)F)cc21

>  <category>
fulfilled

$$$$
>  <molecule>
Cc1ccc2c(c1)c(N1CCC(c3nc4cc(Cl)ccc4o3)CC1)c(C(N)=O)c(=O)n2C

>  <category>
fulfilled

$$$$
>  <molecule>
Cc1ccc2oc(C3CCN(c4c(C#N)c(=O)n(C)c5cc(N(C)CCO)ccc45)CC3)nc2c1

>  <category>
fulfilled

$$$$
>  <molecule>
Cn1c(=O)c(C#N)c(N2CCC(C)(c3nc4cc(S(C)(=O)=O)ccc4o3)CC2)c2ccccc21

>  <category>
not fulfilled

$$$$
